# credit: the supplement of paper PMC10567573

B1: CDC25A (parent)
chain: TVAGKHQDLKYISPEIMASVLNGK

Variants of: B1
Assay: protein stability index of a GFP-peptide fusion (GPS, HEK-293T) (PSI 1-6); higher = more stable;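 note: lentivirally expressed fusions sorted by FACS into six bins by GFP to DsRed ratio, PSI derived from sequencing read proportions per bin multiplied by bin number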
Conditions: c terminus: a fixed tail appended
value.kind: protein stability index
Give the value as a plain number.

N22P
3.4
G4F
2.38
D8S
2.63

Next, consider the following variant.
Need protein stability index, item A3Q
2.7
